Listing of recorded TGI by entry.
test system: RXF 393 renal; experiment: NCI tumour cell line growth inhibition, 48 h
Number only, in µM; omit the unit.

Some compounds with recorded TGI:
# get_value(readout='TGI', item= N=c1oc2c(Cl)cc(Cl)cc2cc1C(=O)Nc1cccc2ccccc12 ) 76.8

For CCOC(=O)COc1ccccc1/C=C1\CCC(CN(C)C)C1=O (centres undefined) then? 7.94

For CC1(C)CC(=O)c2c(C(F)(F)F)nn(-c3ccc(C(N)=O)c(NC4CCC(OC(=O)CN)CC4)c3)c2C1 (centres undefined) then? 28.8

Shift focus to the following entry.
# get_value(readout='TGI', item= O=C(CCCCCCC(=O)Nc1ccc(N(CCCl)CCCl)cc1)NO ) 4.74

* * *

Listing of recorded TGI by entry.
tested on: HOP-62 NSCLC; test: NCI tumour cell line growth inhibition, 48 h

Some compounds with recorded TGI:
# get_value(readout='TGI', item= CCN(CC)c1ccc(C(=O)c2ccccc2C(=O)O)c(O)c1 ) > 100 µM

For CN(CC1(CO)CCC1)c1cc(Cl)nc(N)n1 then? > 100 µM

For COc1cccc2c1c(C(=O)C(=O)Nc1cc(C)no1)cn2Cc1ccc(F)cc1 then? > 100 µM

---
# get_value(readout='TGI', item= C/C(=N\NS(=O)(=O)c1ccccc1)c1ccc(Cl)c(Cl)c1 ) > 100 µM

For CC#C[C@]1(O)CC[C@H]2[C@@H]3CCC4=CC(=O)CCC4=C3[C@@H](c3ccc4c(c3)OCO4)C[C@@]21C then? 400 µM

For Nc1ncnc2ccc(Sc3ccc4ncnc(N)c4c3)cc12 then? > 100 µM

* * *

system: HOP-62 NSCLC; experiment: NCI tumour cell line growth inhibition, 48 h
Where a SMILES comes first, the peptide text is derived from it. [ ]: non-standard residue; d: D form. The star is where a group is joined. X28 = COC1=CC(=O)N(C(=O)[C@@H](O*)C(C)C)[C@H]1Cc1ccccc1; NMeV = CN[C@H](C(=O)O)C(C)C; Hexanoyl = CCCCCC(=O)*
assay_readout: TGI

# get_value(readout='TGI', item= O=C(/C=C/c1ccccc1)c1cc(Br)ccc1O ) 46.3 µM

For CN1CCC(n2cnc(-c3ccc(F)cc3)c2-c2ccnc(NCCO)n2)CC1 then? > 25 µM

For COc1ccc(/C(=C2/O[C@@H]([C@H]3COC(C)(C)O3)[C@H]3OC(C)(C)O[C@@H]23)c2cc(OC)c(OC)c(OC)c2)cc1O then? 34.7 µM

For CCN(CC)CC(C)Nc1ccc([N+](=O)[O-])c2sc3ccccc3c(=O)c12 (stereo not drawn) then? 12.3 µM

For CC1=C(C(=O)O)N2C(=O)[C@@H](NC(=O)C(c3ccc(O)cc3)N3CSC(=S)N(C(C)C)C3)C2SC1 (stereo partly drawn) then? > 100 µM

For CC(NNC(=O)c1ccncc1)c1ccc(F)cc1 (stereo not drawn) then? > 100 µM

For O=S(=O)(O)c1ccc(O)c2ncc(Cl)cc12 then? > 100 µM

For CCc1ccccc1NC(=O)C(=O)CC(=O)c1sc(Nc2ccccc2)nc1C then? > 100 µM

---
# get_value(readout='TGI', item= COc1cc(C(=O)C/C(CCCC(=O)Nc2ccccc2[N+](=O)[O-])=N/NC(=O)c2cc3ccccc3cc2O)ccc1O ) > 100 µM

For CCCC1(NC(=O)C(F)(F)F)CC(OC)OC2COC(c3ccccc3)OC21 (stereo not drawn) then? > 100 µM

For O=C(CCCN1CCC2(CC1)OC(=O)N(c1ccccc1)C2=O)c1ccccc1 then? > 100 µM

For O=[N+]([O-])C1C2C=CC(C2)[C@H]1c1ccco1 (stereo partly drawn) then? > 100 µM

For CC(=O)N1C(Nc2ccccn2)CCN1c1ccccc1 (stereo not drawn) then? > 10 µM

For Cc1ccc(NC(=O)C(=O)C(C#N)c2ccccc2C)cc1C (stereo not drawn) then? > 100 µM

For COC(=O)C1=CC2CCCC1(O)C(C(C)=O)C2 (stereo not drawn) then? > 100 µM

For CCCCCC(=O)N[C@H](C(=O)N[C@H](C(=O)N(C)[C@H](C(=O)N1CCC[C@H]1C(=O)N1CCC[C@H]1C(=O)O[C@H](C(=O)N1C(=O)C=C(OC)[C@@H]1Cc1ccccc1)C(C)C)C(C)C)C(C)C)C(C)C (Hexanoyl-VV[NMeV]PP-X28) then? > 100 µM

For CC(C)c1cc(-c2n[nH]c(=O)n2-c2ccc3c(ccn3C)c2)c(O)cc1O then? 31.8 µM

For CC12CCC(CC1=O)C2(C)CCC(N)=O (stereo not drawn) then? > 100 µM

For C[C@H](OCc1ccccc1)C(=O)N1CCS(=O)(=O)N2CCC[C@H]2C1=O then? > 100 µM
